system: pigweed (Amaranthus retroflexus); test: Test A greenhouse herbicide test, pre- and postemergence; type: in vivo; conditions: Amaranthus retroflexus, pre-emergence, 240 h; Preemergence, 500 g ai/ha; 0 to 100 scale, 0 no effect, 100 complete control; read-out: Plant response rating, Pigweed
result-type: pest or weed control at 500 g/ha (%)
Give the quantity in %, number only.

[
  {
    "smiles-repr": "Cc1nn(C)c(=O)c(-c2c(C)oc3c(C)cccc23)c1O",
    "value-unit": "%",
    "experimental-result": 0
  },
  {
    "smiles-repr": "CC(=O)Oc1c(C)nn(C)c(=O)c1-c1c(C)oc2ccc(C)cc12",
    "value-unit": "%",
    "experimental-result": 90
  },
  {
    "smiles-repr": "CCc1sc2cc(C)cc(C)c2c1-c1c(O)c(C)nn(C)c1=O",
    "value-unit": "%",
    "experimental-result": 0
  }
]

# input Entry `CC(=O)Oc1c(C)nn(C)c(=O)c1-c1c(C)oc2c(C)cccc12` has what pest or weed control at 500 g/ha?
# output 0
